meta.source: patent US12714706B2

Can you tell me Impurity RRT approx. 1.29-1.30 for the items I'm about to list?
Test: Analytical results and impurity profile of batches of Form A and Form B of lurbinectedin
Type: physicochemical
Set-up: unit not given here
Settings: impurity profile, batches of Form A
Keep the answer to the number alone.

Request: Need Impurity RRT approx. 1.29-1.30, item COc1ccc2[nH]c3c(c2c1)CCN[C@]31CS[C@@H]2c3c(OC(C)=O)c(C)c4c(c3[C@H](COC1=O)N1[C@@H]2[C@H]2c3c(cc(C)c(OC)c3O)C[C@@H]([C@@H]1O)N2C)OCO4 [Batch M03]
Response: 0.10

Request: I am curious: what Impurity RRT approx. 1.29-1.30 value has been reported for COc1ccc2[nH]c3c(c2c1)CCN[C@]31CS[C@@H]2c3c(OC(C)=O)c(C)c4c(c3[C@H](COC1=O)N1[C@@H]2[C@H]2c3c(cc(C)c(OC)c3O)C[C@@H]([C@@H]1O)N2C)OCO4 [Batch P01] ?
Response: 0.09

Request: Which Impurity RRT approx. 1.29-1.30 reading was recorded for the compound COc1ccc2[nH]c3c(c2c1)CCN[C@]31CS[C@@H]2c3c(OC(C)=O)c(C)c4c(c3[C@H](COC1=O)N1[C@@H]2[C@H]2c3c(cc(C)c(OC)c3O)C[C@@H]([C@@H]1O)N2C)OCO4 [Batch M01] ?
Response: 0.10

Request: Impurity RRT approx. 1.29-1.30 lookup needed for COc1ccc2[nH]c3c(c2c1)CCN[C@]31CS[C@@H]2c3c(OC(C)=O)c(C)c4c(c3[C@H](COC1=O)N1[C@@H]2[C@H]2c3c(cc(C)c(OC)c3O)C[C@@H]([C@@H]1O)N2C)OCO4 [Batch M02] , thanks.
Response: 0.17

---

Assign Impurity RRT approx. 1.30-1.32 to each entry below.
Experiment: Analytical results and impurity profile of batches of Form A and Form B of lurbinectedin
Format: physicochemical
Design: unit not given here
Details: impurity profile, batches of Form A

Request: GET /values?readout=Impurity RRT approx. 1.30-1.32&item= COc1ccc2[nH]c3c(c2c1)CCN[C@]31CS[C@@H]2c3c(OC(C)=O)c(C)c4c(c3[C@H](COC1=O)N1[C@@H]2[C@H]2c3c(cc(C)c(OC)c3O)C[C@@H]([C@@H]1O)N2C)OCO4 [Batch K04]
Response: 0.08

Request: Reported Impurity RRT approx. 1.30-1.32, compound COc1ccc2[nH]c3c(c2c1)CCN[C@]31CS[C@@H]2c3c(OC(C)=O)c(C)c4c(c3[C@H](COC1=O)N1[C@@H]2[C@H]2c3c(cc(C)c(OC)c3O)C[C@@H]([C@@H]1O)N2C)OCO4 [Batch M01] : ____
Response: 0.18

Request: Which measured Impurity RRT approx. 1.30-1.32 value corresponds to COc1ccc2[nH]c3c(c2c1)CCN[C@]31CS[C@@H]2c3c(OC(C)=O)c(C)c4c(c3[C@H](COC1=O)N1[C@@H]2[C@H]2c3c(cc(C)c(OC)c3O)C[C@@H]([C@@H]1O)N2C)OCO4 [Batch F02] ?
Response: 0.09

Request: Requested read-out: Impurity RRT approx. 1.30-1.32. Entry: COc1ccc2[nH]c3c(c2c1)CCN[C@]31CS[C@@H]2c3c(OC(C)=O)c(C)c4c(c3[C@H](COC1=O)N1[C@@H]2[C@H]2c3c(cc(C)c(OC)c3O)C[C@@H]([C@@H]1O)N2C)OCO4 [Batch P02]
Response: 0.13

Request: Quick check: Impurity RRT approx. 1.30-1.32 of COc1ccc2[nH]c3c(c2c1)CCN[C@]31CS[C@@H]2c3c(OC(C)=O)c(C)c4c(c3[C@H](COC1=O)N1[C@@H]2[C@H]2c3c(cc(C)c(OC)c3O)C[C@@H]([C@@H]1O)N2C)OCO4 [Batch M02] ?
Response: 0.08

Request: Can you look up the measured Impurity RRT approx. 1.30-1.32 of COc1ccc2[nH]c3c(c2c1)CCN[C@]31CS[C@@H]2c3c(OC(C)=O)c(C)c4c(c3[C@H](COC1=O)N1[C@@H]2[C@H]2c3c(cc(C)c(OC)c3O)C[C@@H]([C@@H]1O)N2C)OCO4 [Batch M03] for me?
Response: 0.11

Request: // Impurity RRT approx. 1.30-1.32 lookup, key: COc1ccc2[nH]c3c(c2c1)CCN[C@]31CS[C@@H]2c3c(OC(C)=O)c(C)c4c(c3[C@H](COC1=O)N1[C@@H]2[C@H]2c3c(cc(C)c(OC)c3O)C[C@@H]([C@@H]1O)N2C)OCO4 [Batch K02]
Response: 0.19

Request: Would you mind telling me what Impurity RRT approx. 1.30-1.32 value was observed for COc1ccc2[nH]c3c(c2c1)CCN[C@]31CS[C@@H]2c3c(OC(C)=O)c(C)c4c(c3[C@H](COC1=O)N1[C@@H]2[C@H]2c3c(cc(C)c(OC)c3O)C[C@@H]([C@@H]1O)N2C)OCO4 [Batch K03] ?
Response: 0.08

Request: Could you share which Impurity RRT approx. 1.30-1.32 value was measured for COc1ccc2[nH]c3c(c2c1)CCN[C@]31CS[C@@H]2c3c(OC(C)=O)c(C)c4c(c3[C@H](COC1=O)N1[C@@H]2[C@H]2c3c(cc(C)c(OC)c3O)C[C@@H]([C@@H]1O)N2C)OCO4 [Batch G01] ?
Response: 0.13

---

Record form. Attribute: Total Impurities. Fill in for each entry.
Assay: Analytical results and impurity profile of batches of Form A and Form B of lurbinectedin
Assay type: physicochemical
Conditions: batches of Form B of lurbinectedin
Dear colleague, please return just the value in % Area, with no unit written.

Request: Please report the recorded Total Impurities for COc1ccc2[nH]c3c(c2c1)CCN[C@]31CS[C@@H]2c3c(OC(C)=O)c(C)c4c(c3[C@H](COC1=O)N1[C@@H]2[C@H]2c3c(cc(C)c(OC)c3O)C[C@@H]([C@@H]1O)N2C)OCO4 [Batch R03] .
Response: 0.3

Request: Fill in the blank: the reported Total Impurities of COc1ccc2[nH]c3c(c2c1)CCN[C@]31CS[C@@H]2c3c(OC(C)=O)c(C)c4c(c3[C@H](COC1=O)N1[C@@H]2[C@H]2c3c(cc(C)c(OC)c3O)C[C@@H]([C@@H]1O)N2C)OCO4 [Batch 1711189-2] is ____.
Response: 0.3

Request: Please give the measured Total Impurities for this molecule: COc1ccc2[nH]c3c(c2c1)CCN[C@]31CS[C@@H]2c3c(OC(C)=O)c(C)c4c(c3[C@H](COC1=O)N1[C@@H]2[C@H]2c3c(cc(C)c(OC)c3O)C[C@@H]([C@@H]1O)N2C)OCO4 [Batch R02]
Response: 0.3

---

Assay: Analytical results and impurity profile of batches of Form A and Form B of lurbinectedin
Assay type: physicochemical
Design: unit not given here
Conditions: impurity profile, batches of Form A
Answer each item with its documented Impurity RRT approx. 1.10-1.11.
API note: the answer field is a bare number with no unit suffix.

Request: Can you look up the measured Impurity RRT approx. 1.10-1.11 of COc1ccc2[nH]c3c(c2c1)CCN[C@]31CS[C@@H]2c3c(OC(C)=O)c(C)c4c(c3[C@H](COC1=O)N1[C@@H]2[C@H]2c3c(cc(C)c(OC)c3O)C[C@@H]([C@@H]1O)N2C)OCO4 [Batch K03] for me?
Response: 0.17

Request: Look up Impurity RRT approx. 1.10-1.11 for this compound: COc1ccc2[nH]c3c(c2c1)CCN[C@]31CS[C@@H]2c3c(OC(C)=O)c(C)c4c(c3[C@H](COC1=O)N1[C@@H]2[C@H]2c3c(cc(C)c(OC)c3O)C[C@@H]([C@@H]1O)N2C)OCO4 [Batch K04]
Response: 0.20

Request: # Impurity RRT approx. 1.10-1.11 lookup, item COc1ccc2[nH]c3c(c2c1)CCN[C@]31CS[C@@H]2c3c(OC(C)=O)c(C)c4c(c3[C@H](COC1=O)N1[C@@H]2[C@H]2c3c(cc(C)c(OC)c3O)C[C@@H]([C@@H]1O)N2C)OCO4 [Batch P02]
Response: 0.09

Request: Entry under review: COc1ccc2[nH]c3c(c2c1)CCN[C@]31CS[C@@H]2c3c(OC(C)=O)c(C)c4c(c3[C@H](COC1=O)N1[C@@H]2[C@H]2c3c(cc(C)c(OC)c3O)C[C@@H]([C@@H]1O)N2C)OCO4 [Batch M03] . Reported Impurity RRT approx. 1.10-1.11?
Response: 0.11

Request: GET /values?readout=Impurity RRT approx. 1.10-1.11&item= COc1ccc2[nH]c3c(c2c1)CCN[C@]31CS[C@@H]2c3c(OC(C)=O)c(C)c4c(c3[C@H](COC1=O)N1[C@@H]2[C@H]2c3c(cc(C)c(OC)c3O)C[C@@H]([C@@H]1O)N2C)OCO4 [Batch G01]
Response: 0.50

Request: // lookup Impurity RRT approx. 1.10-1.11 for COc1ccc2[nH]c3c(c2c1)CCN[C@]31CS[C@@H]2c3c(OC(C)=O)c(C)c4c(c3[C@H](COC1=O)N1[C@@H]2[C@H]2c3c(cc(C)c(OC)c3O)C[C@@H]([C@@H]1O)N2C)OCO4 [Batch K02]
Response: 0.13

Request: State the recorded Impurity RRT approx. 1.10-1.11 for this entry: COc1ccc2[nH]c3c(c2c1)CCN[C@]31CS[C@@H]2c3c(OC(C)=O)c(C)c4c(c3[C@H](COC1=O)N1[C@@H]2[C@H]2c3c(cc(C)c(OC)c3O)C[C@@H]([C@@H]1O)N2C)OCO4 [Batch M01]
Response: 0.08

Request: For COc1ccc2[nH]c3c(c2c1)CCN[C@]31CS[C@@H]2c3c(OC(C)=O)c(C)c4c(c3[C@H](COC1=O)N1[C@@H]2[C@H]2c3c(cc(C)c(OC)c3O)C[C@@H]([C@@H]1O)N2C)OCO4 [Batch F02] , what is its reported Impurity RRT approx. 1.10-1.11?
Response: 0.17

Request: Reported Impurity RRT approx. 1.10-1.11 for COc1ccc2[nH]c3c(c2c1)CCN[C@]31CS[C@@H]2c3c(OC(C)=O)c(C)c4c(c3[C@H](COC1=O)N1[C@@H]2[C@H]2c3c(cc(C)c(OC)c3O)C[C@@H]([C@@H]1O)N2C)OCO4 [Batch P01] : what is it?
Response: 0.15

Request: # Impurity RRT approx. 1.10-1.11 lookup, item COc1ccc2[nH]c3c(c2c1)CCN[C@]31CS[C@@H]2c3c(OC(C)=O)c(C)c4c(c3[C@H](COC1=O)N1[C@@H]2[C@H]2c3c(cc(C)c(OC)c3O)C[C@@H]([C@@H]1O)N2C)OCO4 [Batch M02]
Response: 0.10
